# Test system: L8, normal rat skeletal muscle cells
# Experimental Setup: 24 h
Measured Quantity: Skeletal

>>> recorded_value("COc1c(C)cc2c(c1O)[C@@H]1C3[C@@H]4SC[C@]5(NCCc6c5[nH]c5ccc(O)cc65)C(=O)COC[C@@H](c5c6c(c(C)c(OC(C)=O)c54)OCO6)N3[C@@H](O)[C@H](C2)N1C (stereo partly shown)")
"1.35E−08"
>>> recorded_value("COc1c(C)cc2c(c1O)[C@@H]1C3[C@@H]4SC[C@]5(NCCc6c5[nH]c5ccc(OCc7ccccc7)cc65)C(=O)COC[C@@H](c5c6c(c(C)c(OC(C)=O)c54)OCO6)N3[C@@H](O)[C@H](C2)N1C (stereo partly shown)")
"3.29E−07"
>>> recorded_value("COc1c(C)cc2c(c1O)[C@@H]1C3[C@@H]4SC[C@]5(NCCc6c5[nH]c5c(OCc7ccccc7)cccc65)C(=O)COC[C@@H](c5c6c(c(C)c(OC(C)=O)c54)OCO6)N3[C@@H](O)[C@H](C2)N1C (stereo partly shown)")
"1.45E−07"
>>> recorded_value("COc1c(C)cc2c(c1O)[C@@H]1C3[C@@H]4SC[C@]5(NCCc6c5[nH]c5cc(F)ccc65)C(=O)COC[C@@H](c5c6c(c(C)c(OC(C)=O)c54)OCO6)N3[C@@H](O)[C@H](C2)N1C (stereo partly shown)")
"1.51E−08"

Where do the numbers come from? From patent US7763615B2.
